A collection of compounds and their measured MIC
# System: Salmonella typhimurium
# TEST_NAME: Antibacterial activity against Salmonella typhimurium ATCC 14028 after 24 hrs by twofold serial dilution method
# Type: functional, Salmonella enterica subsp. enterica serovar Typhimurium
# RUN_PARAMETERS: Salmonella enterica, ATCC 14028, 24 h
MEASURED_ATTRIBUTE: MIC

[[record]]
smiles_structure = "C[C@@]1(CO)CCC[C@]2(C)[C@H]3C[C@@H](O)[C@]4(C)[C@H]5COC(=O)C5=CC[C@H]4[C@]3(C)CC[C@@H]12"
tested_on = "Salmonella typhimurium"
result = "> 100 µg/mL"

[[record]]
smiles_structure = "CC(=O)O[C@@H]1C[C@@H]2[C@@]3(C)CCCC(C)(C)[C@@H]3CC[C@@]2(C)[C@@H]2CC=C3C(=O)O[C@@H](O)[C@@H]3[C@@]12C"
tested_on = "Salmonella typhimurium"
result = "> 100 µg/mL"

[[record]]
smiles_structure = "CC(=O)O[C@@H]1C[C@@H]2[C@@]3(C)CCCC(C)(C)[C@@H]3CC[C@@]2(C)[C@@H]2CC=C3CO[C@@H](O)[C@@H]3[C@@]12C"
tested_on = "Salmonella typhimurium"
result = "> 100 µg/mL"


---

A collection of compounds and their measured MIC
# System: Proteus vulgaris
# TEST_NAME: Antibacterial activity against Proteus vulgaris ATCC 3851 after 24 hrs by twofold serial dilution method
# Type: functional
# RUN_PARAMETERS: ATCC 3851, 24 h
MEASURED_ATTRIBUTE: MIC

[[record]]
smiles_structure = "CO[C@@H]1OC(=O)C2=CC[C@H]3[C@]4(C)CC[C@H]5C(C)(C)CCC[C@]5(C)[C@H]4C[C@@H](OC(C)=O)[C@]3(C)[C@H]21"
measured_attribute = "MIC"
result = "> 100 µg/mL"

[[record]]
smiles_structure = "C[C@@]1(CO)CCC[C@]2(C)[C@H]3C[C@@H](O)[C@]4(C)[C@H]5COC(=O)C5=CC[C@H]4[C@]3(C)CC[C@@H]12"
measured_attribute = "MIC"
result = "> 100 µg/mL"

[[record]]
smiles_structure = "CC(=O)O[C@@H]1C[C@@H]2[C@@]3(C)CCCC(C)(C)[C@@H]3CC[C@@]2(C)[C@@H]2CC=C3CO[C@@H](O)[C@@H]3[C@@]12C"
measured_attribute = "MIC"
result = "> 100 µg/mL"

[[record]]
smiles_structure = "CC(=O)OC[C@]12CCCC(C)(C)[C@@H]1CC[C@]1(C)[C@@H]2C[C@@H](OC(C)=O)[C@]2(C)[C@@H]3C(=CC[C@@H]12)CO[C@H]3O"
measured_attribute = "MIC"
result = "3.12 µg/mL"

[[record]]
smiles_structure = "CO[C@@H]1OCC2=CC[C@H]3[C@]4(C)CC[C@H]5C(C)(C)CCC[C@]5(C)[C@H]4C[C@@H](O)[C@]3(C)[C@H]21"
measured_attribute = "MIC"
result = "> 100 µg/mL"

[[record]]
smiles_structure = "CC(=O)O[C@@H]1C[C@@H]2[C@@]3(C)CCCC(C)(C)[C@@H]3CC[C@@]2(C)[C@@H]2CC=C3C(=O)O[C@@H](O)[C@@H]3[C@@]12C"
measured_attribute = "MIC"
result = "6.25 µg/mL"

